Biological target: T1, recombinant human CD123 (human, UniProt P26951 19-305, limits assumed)
T1 construct: also called coated CD123
T1 sequence (looked up): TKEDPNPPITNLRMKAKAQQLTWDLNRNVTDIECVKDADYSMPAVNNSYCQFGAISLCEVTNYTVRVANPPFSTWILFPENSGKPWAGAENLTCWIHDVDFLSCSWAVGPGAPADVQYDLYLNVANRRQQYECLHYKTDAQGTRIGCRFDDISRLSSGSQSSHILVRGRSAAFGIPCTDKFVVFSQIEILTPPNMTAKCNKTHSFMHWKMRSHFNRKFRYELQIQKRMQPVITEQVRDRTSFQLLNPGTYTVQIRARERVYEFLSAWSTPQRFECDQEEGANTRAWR
Assay: ELISA, soluble scFv on coated recombinant human CD123
READOUT LABEL: binding result

[
  {
    "BINDER": "scFv MB31-A01 (scFv, Soluble scFv carried c-myc and His tags (detection antibodies); also called CD123 (MB31-A01)) scFv: QIQLVQSGAEVKKPGSSVKVSCKASGGTFSSYAISWVRQAPGQGLEWMGGIIPIFGTANYAQKFQGRVTITADESTSTAYMELSSLRSEDTAVYYCARGSGELLYASYYYYYMDVWGKGTTVTVSSGGGGSGGGGSGGGGSQSALTQPASVSGSPGQSITISCTGTSSDVGGYNYVSWYQQHPGKAPELMIYDVSNRPSGVSNRFSGSKSGNTASLTISGLQAEDEADYYCSSYTSSSTPVVFGGGTKLTVL",
    "MEAS VALUE": "binds"
  }
]

The origin of these recorded values is patent US20230338424A1.
